# STUDY_SYSTEM: CAT1 (cationic amino acid transporter 1, CAT1/SLC7A1) (Homo sapiens, UniProt P30825)
# Construct: full-length human transporter stably transfected in HEK cells (HEK-CAT1); net uptake against HEK-VC vector control cells
# Sequence (P30825 whole entry): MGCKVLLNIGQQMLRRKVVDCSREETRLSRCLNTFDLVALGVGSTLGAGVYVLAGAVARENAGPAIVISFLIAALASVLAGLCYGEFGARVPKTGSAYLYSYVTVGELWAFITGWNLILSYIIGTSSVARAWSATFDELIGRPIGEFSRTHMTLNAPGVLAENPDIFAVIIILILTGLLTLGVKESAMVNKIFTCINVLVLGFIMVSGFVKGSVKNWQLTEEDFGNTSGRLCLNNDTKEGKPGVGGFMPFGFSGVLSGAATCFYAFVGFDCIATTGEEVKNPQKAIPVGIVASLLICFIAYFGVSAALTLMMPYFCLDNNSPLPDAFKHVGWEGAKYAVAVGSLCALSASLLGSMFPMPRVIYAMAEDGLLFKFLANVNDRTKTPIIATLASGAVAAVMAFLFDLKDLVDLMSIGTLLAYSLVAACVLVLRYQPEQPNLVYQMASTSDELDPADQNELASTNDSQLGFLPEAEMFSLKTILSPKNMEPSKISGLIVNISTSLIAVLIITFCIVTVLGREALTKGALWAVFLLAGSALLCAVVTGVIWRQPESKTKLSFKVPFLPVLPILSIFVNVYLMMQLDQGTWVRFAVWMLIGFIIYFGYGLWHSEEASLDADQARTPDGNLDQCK
# EXPERIMENTAL_PROTOCOL: cell-based
# Set-up: species or system HEK-CAT1 (HEK293 stably transfected); Inhibition of net CAT1-mediated [3H]-ADMA (1 uM) uptake, 2.5 min, scintillation counting, vector control subtracted
# MEASUREMENT_SETUP: HEK293; ADMA 1 uM as substrate; read-out: % Inhibition of ADMA uptake at 20 µM
REPORTED_ENDPOINT: inhibition at 20 µM (%)
Give bare numbers, in %.

Examples with their reported inhibition at 20 µM follow.
> print(dat)
                                   compound  reading
1  CC(=O)Nc1nnc(S(N)(=O)=O)s1 [Acetazolamide]     -1.5
2  N[C@@H](Cc1ccc(O)c(O)c1)C(=O)O [Levodopa]     28.1
3  C[C@]12CCC(=O)C=C1CC[C@H]1[C@@H]3CC[C@](O)(C(=O)CO)[C@@]3(C)C[C@H](O)[C@@]12F [Fludrocortisone]      0.5
4  COC(=O)[C@H](c1ccccc1Cl)N1CCc2sccc2C1 [Clopidogrel]      -11
5  NCCCC[C@H](N[C@@H](CCc1ccccc1)C(=O)O)C(=O)N1CCC[C@H]1C(=O)O [Lisinopril]      1.6
6     Cc1cc(=O)n(-c2ccccc2)n1C [Antipyrine]      1.9

List inhibition at 20 µM for every entry below, keeping the order given.
1. C#C[C@]1(O)CC[C@H]2[C@@H]3CCc4cc(O)ccc4[C@H]3CC[C@@]21C [Ethinylestradiol]
2. CC(=O)N[C@@H](CS)C(=O)O [Acetylcysteine]

1. -1.6
2. 3.2

Sample C[C@@H](O)[C@H]1C(=O)N2C(C(=O)O)=C(S[C@@H]3CN[C@H](C(=O)N(C)C)C3)[C@H](C)[C@H]12 [Meropenem] — what was its inhibition at 20 µM?
0.1
